- protocolDescription: IAM chromatography on new IAM.PC.DD2 columns (gradient HPLC, CHI (IAM))
- Assay type: physicochemical
- Parameters: key: CHI (IAM) from retention times calibrated to predefined CHI standards
- runConditions: new IAM.PC.DD2 column batch P20511-014-3, pH 7.4
Each record here notes measured P20511-014-3 CHI (IAM).
outcomeMeasure: P20511-014-3 CHI (IAM)

>  <compound>
CC(C)NCC(O)COc1cccc2[nH]ccc12 (stereo not shown)

>  <outcomeMeasure>
P20511-014-3 CHI (IAM)

>  <measuredResult>
25.31

$$$$
>  <compound>
CC(C)(C)NC(=O)[C@H]1CC[C@H]2[C@@H]3CC[C@H]4NC(=O)C=C[C@]4(C)[C@H]3CC[C@]12C [Finasteride]

>  <outcomeMeasure>
P20511-014-3 CHI (IAM)

>  <measuredResult>
37.17

$$$$
>  <compound>
COc1cc2nc(N3CCN(C(=O)c4ccco4)CC3)nc(N)c2cc1OC

>  <outcomeMeasure>
P20511-014-3 CHI (IAM)

>  <measuredResult>
29.35

$$$$
>  <compound>
C[C@]12CCC(=O)C=C1CC[C@@H]1[C@@H]2[C@@H](O)C[C@@]2(C)[C@H]1CC[C@]2(O)C(=O)CO [Hydrocortisone]

>  <outcomeMeasure>
P20511-014-3 CHI (IAM)

>  <measuredResult>
27.02

$$$$
>  <compound>
O=C(O)Cc1ccccc1Nc1c(Cl)cccc1Cl

>  <outcomeMeasure>
P20511-014-3 CHI (IAM)

>  <measuredResult>
35.85

$$$$
>  <compound>
OCCN1CCN(CCCN2c3ccccc3Sc3ccc(Cl)cc32)CC1

>  <outcomeMeasure>
P20511-014-3 CHI (IAM)

>  <measuredResult>
48.97

$$$$
>  <compound>
CCCCNCC(O)c1ccc(O)cc1 (stereo not shown)

>  <outcomeMeasure>
P20511-014-3 CHI (IAM)

>  <measuredResult>
18.03

$$$$
